# test details: recombinant UMI read abundance after kanamycin selection (control-corrected) (log10(CPM+1)); higher = more efficient recombination; extreme values may be limits of the assay; sequences stand for … in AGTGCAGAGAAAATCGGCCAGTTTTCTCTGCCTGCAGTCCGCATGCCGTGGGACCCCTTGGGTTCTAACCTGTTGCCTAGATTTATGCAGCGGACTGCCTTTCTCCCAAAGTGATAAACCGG…AGGTTGGTTTCACT; site = the 11-nt donor;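 also: IS621 bridge recombinase in Escherichia coli cells against a fixed T5 target plasmid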
We begin with a simple list: items and their reported recombinant UMI read abundance (log10).
Keep the answer to the number alone.

Below are worked cases with known answers.
{"record sequence": "AGTGCAACATGGACCGGTTTTCCCGGTAATCCGTATTTGGC (site AGTGCAACTGC)", "recombinant UMI read abundance (log10)": 0}
{"record sequence": "GAATAAGCATGGACCGGTTTTCCCGGTAATCCGTATTTGTG (site GAATAAGCTCA)", "recombinant UMI read abundance (log10)": 1.99}
{"record sequence": "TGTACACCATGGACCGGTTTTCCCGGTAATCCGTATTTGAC (site TGTACACCTCT)", "recombinant UMI read abundance (log10)": 0.0222}
{"record sequence": "ACACATCCATGGACCGGTTTTCCCGGTAATCCGTATTTGGC (site ACACATCCTGC)", "recombinant UMI read abundance (log10)": 1.5}
{"record sequence": "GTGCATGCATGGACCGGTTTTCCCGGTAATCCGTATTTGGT (site GTGCATGCTAG)", "recombinant UMI read abundance (log10)": 0.442}
{"record sequence": "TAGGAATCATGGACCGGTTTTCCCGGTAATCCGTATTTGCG (site TAGGAATCTGG)", "recombinant UMI read abundance (log10)": 2.08}

Field: next sequence
q: Which recombinant UMI read abundance (log10) value belongs to ACACGAACATGGACCGGTTTTCCCGGTAATCCGTATTTGGC (site ACACGAACTGA) ?
a: 1.19

====

# test details: recombinant UMI read abundance after kanamycin selection (control-corrected) (log10(CPM+1)); higher = more efficient recombination; extreme values may be limits of the assay; sequences stand for … in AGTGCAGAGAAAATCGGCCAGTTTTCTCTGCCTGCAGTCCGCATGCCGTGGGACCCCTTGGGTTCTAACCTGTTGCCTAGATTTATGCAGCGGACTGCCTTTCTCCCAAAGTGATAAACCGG…AGGTTGGTTTCACT; site = the 11-nt donor
observable: recombinant UMI read abundance (log10)
Keep the answer to the number alone.

{"record sequence": "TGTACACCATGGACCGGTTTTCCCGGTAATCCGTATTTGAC (site CGTACACCTGT)", "measured value": 0}
{"record sequence": "GAGCTGACATGGACCGGTTTTCCCGGTAATCCGTATTTGAT (site GAGCTTACTAT)", "measured value": 0.154}
{"record sequence": "AGGAATACATGGACCGGTTTTCCCGGTAATCCGTATTTGGA (site AGGAAGACTTG)", "measured value": 0.341}

Field: next sequence
q: Which recombinant UMI read abundance (log10) value belongs to CTACCAACATGGACCGGTTTTCCCGGTAATCCGTATTTGGA (site CTACCAACTTC) ?
a: 0.959

====

We begin with a simple list: items and their reported recombinant UMI read abundance (log10).
# test details: recombinant UMI read abundance after kanamycin selection (control-corrected) (log10(CPM+1)); higher = more efficient recombination; extreme values may be limits of the assay; sequences stand for … in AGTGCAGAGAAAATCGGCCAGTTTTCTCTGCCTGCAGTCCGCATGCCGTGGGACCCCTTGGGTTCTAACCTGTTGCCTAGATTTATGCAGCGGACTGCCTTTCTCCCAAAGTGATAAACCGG…AGGTTGGTTTCACT; site = the 11-nt donor
Keep the answer to the number alone.

Below are worked cases with known answers.
{"record sequence": "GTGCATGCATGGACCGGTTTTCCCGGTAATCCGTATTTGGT (site CTGCATGCTAC)", "recombinant UMI read abundance (log10)": 0.457}
{"record sequence": "ACTAGAACATGGACCGGTTTTCCCGGTAATCCGTATTTGCG (site ACTAGAACTCC)", "recombinant UMI read abundance (log10)": 0.0147}

q: Which recombinant UMI read abundance (log10) value belongs to GAACGGCCATGGACCGGTTTTCCCGGTAATCCGTATTTGCA (site GAAAGGCCTTG) ?
a: 0

q: Which recombinant UMI read abundance (log10) value belongs to TCCGCCGCATGGACCGGTTTTCCCGGTAATCCGTATTTGCG (site TCCACCGCTCG) ?
a: 0

q: Which recombinant UMI read abundance (log10) value belongs to GTTGGTCCATGGACCGGTTTTCCCGGTAATCCGTATTTGGT (site GTTGTTCCTAC) ?
a: 0.00359

q: Which recombinant UMI read abundance (log10) value belongs to CGTTGGACATGGACCGGTTTTCCCGGTAATCCGTATTTGAG (site CGTTCGACTCT) ?
a: 0.022

q: Which recombinant UMI read abundance (log10) value belongs to GATCCACCATGGACCGGTTTTCCCGGTAATCCGTATTTGGT (site GATCCACCTAC) ?
a: 0.0102

q: Which recombinant UMI read abundance (log10) value belongs to ATCCAGGCATGGACCGGTTTTCCCGGTAATCCGTATTTGTG (site ATCCAGGCTCA) ?
a: 0.328

q: Which recombinant UMI read abundance (log10) value belongs to CAATGCCCATGGACCGGTTTTCCCGGTAATCCGTATTTGAA (site CAATGCACTTT) ?
a: 0.00911

====

# test details: recombinant UMI read abundance after kanamycin selection (control-corrected) (log10(CPM+1)); higher = more efficient recombination; extreme values may be limits of the assay; sequences stand for … in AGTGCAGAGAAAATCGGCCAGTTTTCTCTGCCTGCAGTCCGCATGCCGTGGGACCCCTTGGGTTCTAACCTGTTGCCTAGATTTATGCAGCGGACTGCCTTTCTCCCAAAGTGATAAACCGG…AGGTTGGTTTCACT; site = the 11-nt donor
We begin with a simple list: items and their reported recombinant UMI read abundance (log10).
Keep the answer to the number alone.

Below are worked cases with known answers.
{"record sequence": "GGTCCACCATGGACCGGTTTTCCCGGTAATCCGTATTTGCT (site GGTCCACCTAG)", "recombinant UMI read abundance (log10)": 0}
{"record sequence": "CCAAGGACATGGACCGGTTTTCCCGGTAATCCGTATTTGTT (site CCAAGGACTAA)", "recombinant UMI read abundance (log10)": 0.865}
{"record sequence": "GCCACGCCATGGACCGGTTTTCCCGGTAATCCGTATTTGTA (site GCCACGCCTTG)", "recombinant UMI read abundance (log10)": 0.0133}

q: Which recombinant UMI read abundance (log10) value belongs to ATCCAAACATGGACCGGTTTTCCCGGTAATCCGTATTTGAG (site ATCCAAACTCT) ?
a: 1.6

====

# test details: recombinant UMI read abundance after kanamycin selection (control-corrected) (log10(CPM+1)); higher = more efficient recombination; extreme values may be limits of the assay; sequences stand for … in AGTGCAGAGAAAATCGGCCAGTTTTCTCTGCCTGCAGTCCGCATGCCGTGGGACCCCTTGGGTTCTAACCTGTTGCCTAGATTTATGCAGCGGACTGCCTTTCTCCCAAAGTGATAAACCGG…AGGTTGGTTTCACT; site = the 11-nt donor
observable: recombinant UMI read abundance (log10)

Below are worked cases with known answers.
{"record sequence": "CGCGTCACATGGACCGGTTTTCCCGGTAATCCGTATTTGAC (site CGCGTCACTGT)", "measured value": 2.44}
{"record sequence": "GGCCAGCCATGGACCGGTTTTCCCGGTAATCCGTATTTGTT (site GGCCACCCTAA)", "measured value": 0.0285}
{"record sequence": "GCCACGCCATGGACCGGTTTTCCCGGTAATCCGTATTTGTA (site GCCACGTCTTA)", "measured value": 1.45}
{"record sequence": "TCAACCGCATGGACCGGTTTTCCCGGTAATCCGTATTTGCG (site TCAACCGCTCG)", "measured value": 0}
{"record sequence": "AATGTGACATGGACCGGTTTTCCCGGTAATCCGTATTTGAC (site AATGTGCCTGT)", "measured value": 0}
{"record sequence": "TAGACGGCATGGACCGGTTTTCCCGGTAATCCGTATTTGGC (site TAGACGGCTGC)", "measured value": 2.75}
{"record sequence": "ATATATACATGGACCGGTTTTCCCGGTAATCCGTATTTGAC (site ATTTATACTGT)", "measured value": 0.227}
{"record sequence": "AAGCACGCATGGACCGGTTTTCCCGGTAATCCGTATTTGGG (site AAGCACGCTGC)", "measured value": 0}

q: Which recombinant UMI read abundance (log10) value belongs to GAATTGCCATGGACCGGTTTTCCCGGTAATCCGTATTTGCA (site GAATGGCCTTG) ?
a: 0.696

q: Which recombinant UMI read abundance (log10) value belongs to TGATAGGCATGGACCGGTTTTCCCGGTAATCCGTATTTGGT (site TGGTAGGCTAC) ?
a: 0.0189

q: Which recombinant UMI read abundance (log10) value belongs to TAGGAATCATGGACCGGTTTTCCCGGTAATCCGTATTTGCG (site TAGGAATCTTG) ?
a: 1.85

q: Which recombinant UMI read abundance (log10) value belongs to CAGTTGCCATGGACCGGTTTTCCCGGTAATCCGTATTTGGT (site CAGTTGCCTAC) ?
a: 0.0159

q: Which recombinant UMI read abundance (log10) value belongs to CTCTCCTCATGGACCGGTTTTCCCGGTAATCCGTATTTGCC (site CACTCCTCTGG) ?
a: 2.68

q: Which recombinant UMI read abundance (log10) value belongs to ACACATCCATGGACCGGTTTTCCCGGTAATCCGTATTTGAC (site ACACATGCTGT) ?
a: 0
